All figures here come from PubChem BioAssay (NCI).

# System: UACC-62 melanoma
# procedureSummary: NCI-60 one-dose screen, 48 h (100 = growth as untreated, 0 = no growth, -100 = all killed)
# runParameters: 10 µM unless noted
Compounds without any hit were thinned out: in the full panel of roughly 83,000, 20% have a hit.
reportedMetric: growth (%)
One number for each entry, in %.

| compound | targetOfAssay | growth, % |
| --- | --- | --- |
| CCN(CC)CCOc1ccc(/C(=C(\C)c2ccc(F)c(OC)c2)c2ccc(Cl)cc2)cc1 | UACC-62 melanoma | -44.8 |
| CC(=[N-])N1CCC[C@@H](Nc2c3ccccc3nc3ccccc23)C1.[Cl][Pt].[NH-]CCC[NH-] | UACC-62 melanoma | -63.3 |
| O=C1C(Cl)C(c2ccccc2Cl)N1n1cnnc1 (centres undefined) | UACC-62 melanoma | 94.7 |
| O=C(/C=C/C12c3ccccc3C(c3ccccc31)C1C(=O)NC(=O)C12)c1ccccc1 (centres undefined) | UACC-62 melanoma | 36.3 |
| CN(C)c1ccc(/C=C2\C=C(c3ccccc3)N(CCc3ccccc3)C2=O)cc1 | UACC-62 melanoma | 67.3 |
| Cc1ccc(/C=C(\C#N)n2nnc3cc(Cl)c(Cl)cc32)cc1 | UACC-62 melanoma | 26.1 |
| O=C(NCCOCCOCCOCCNC(=O)c1cc2c(o1)C(=O)c1ccccc1C2=O)NC12CC3CC(CC(C3)C1)C2 | UACC-62 melanoma | -93.6 |
| N=C(N)c1ccc(-c2ccc(-c3ccc(Cl)cn3)s2)cc1 | UACC-62 melanoma | 89.7 |

Please look at the following compound next.
# input compound: Cc1nc(Nc2ccc(NC(=S)Nc3ccccc3)cc2)nc2nc(Nc3ccc(S(=O)(=O)O)cc3)[nH]c(=O)c12 ; wanted: its growth
105
